Assay: Human HepG2 cell viability assay in 384 well format
Format: toxicity, cell-based
Set-up: dose 125 nL, time 70.5 hour; concentration not given beside the values
Conditions: HepG2 cells, read-out: Inhibition
MEASURED_ATTRIBUTE: cytotoxicity at 70.5 h (%)
Express it in %; write the number only.

stdin: Quick one: cytotoxicity at 70.5 h of CN(C)c1nc2sc(C(=O)N3CCNC(=O)CC3)cc2s1 ?
stdout: -10.2

stdin: Quick one: cytotoxicity at 70.5 h for CN(C)CCn1c([C@H]2CCCO2)cc2cccnc21 ?
stdout: -2.03

stdin: Value lookup for cytotoxicity at 70.5 h; key = COc1ccc(S(=O)(=O)NC(=O)COC2CCCCC2)cc1C
stdout: -4.48

stdin: # cytotoxicity at 70.5 h lookup, item COc1cc(CNC(=O)NCc2c(C)cc(C)[nH]c2=O)ccc1C
stdout: -8.93

stdin: Requested read-out: cytotoxicity at 70.5 h. Entry: COCCO[C@H]1CCN(C(=O)c2ccno2)[C@H]1Cc1cnn(C)c1
stdout: -0.314

stdin: Which measured cytotoxicity at 70.5 h value corresponds to CC(C)c1nccn1C1CCCN(C(=O)c2cc(C(N)=O)cs2)C1 (centres undefined) ?
stdout: 2.06

stdin: What does the record list as cytotoxicity at 70.5 h for c1cnnc(N2CCCC(NCc3cccc4c3OCCO4)C2)c1 (centres undefined) ?
stdout: 6.38

stdin: What value of measured cytotoxicity at 70.5 h is listed for Fc1cccc(CNCC2OCCc3cn(CC4CCOCC4)nc32)c1 (centres undefined) ?
stdout: -5.44

stdin: Requested field: cytotoxicity at 70.5 h. Item: CS(=O)(=O)N1CCOCC12CCN(Cc1ccc(F)cc1)CC2
stdout: -6.42

stdin: Sample Cc1cnn(CC2CN(CC(=O)Nc3cccnc3)CCO2)c1 (centres undefined) — what was its cytotoxicity at 70.5 h?
stdout: -4.29

stdin: Item under review: O=C(c1csnn1)N1CCCC(n2cncn2)C1 (centres undefined) . Reported cytotoxicity at 70.5 h?
stdout: 15.3

stdin: # query: cytotoxicity at 70.5 h of entry O=C(NCCNc1ncccn1)c1ccc(Br)cc1
stdout: -15.1

stdin: Please give the measured cytotoxicity at 70.5 h for this molecule: c1ccc(OCCN2CCC(c3cnccn3)CC2)cc1
stdout: 3.59

stdin: What value of measured cytotoxicity at 70.5 h is listed for CCOCCn1nc(C)cc1C(=O)N1CCCC[C@H](N(C)C)C1 ?
stdout: -4.33

stdin: # query: cytotoxicity at 70.5 h of entry CN(C)c1nccc(N2CCO[C@H]3CN(CC4CCOCC4)C[C@H]32)n1
stdout: -7.1

stdin: What value of cytotoxicity at 70.5 h has been recorded for this entry: Cn1nc(CNC(=O)c2ccc(Cl)cc2)c2c1CCOC2
stdout: 3.98

stdin: Requested read-out: cytotoxicity at 70.5 h. Entry: Cc1cc(CN2C[C@@H]3CCCO[C@@H]3[C@H](NS(C)(=O)=O)C2)no1
stdout: -1.78

stdin: Sample CN(C(=O)c1ccc(Cl)cn1)c1ccccc1S(C)(=O)=O — what was its cytotoxicity at 70.5 h?
stdout: -5.72

stdin: Quick check: cytotoxicity at 70.5 h of Cc1cnn(CC2CCCCN2CC(=O)NCc2ccccn2)c1 (centres undefined) ?
stdout: -11

stdin: May I ask what cytotoxicity at 70.5 h has been recorded for COCCNS(=O)(=O)c1ccc(Cl)c(C(=O)N(C)Cc2ccsc2)c1 ?
stdout: -5.32

stdin: Sample COCCN1C=NC2(CCC(C(=O)Nc3ccc(C)cc3)CC2)C1=O (centres undefined) — what was its cytotoxicity at 70.5 h?
stdout: -3.77

stdin: Any idea what its cytotoxicity at 70.5 h is? The molecule is c1cnc(N2CCc3onc(CN4CCOCC4)c3C2)cn1
stdout: -9.12

stdin: Requested read-out: cytotoxicity at 70.5 h. Entry: COCCN1CCC2(CCCN(c3ncccn3)C2)C1 (centres undefined)
stdout: -12.6

stdin: Tell me the measured cytotoxicity at 70.5 h of Cc1ccc(CN2CCCn3nnc(COCCN(C)C)c3C2)s1 , please.
stdout: -16

These entries and their values trace back to ChEMBL document CHEMBL3507680.
